test_details: recombinant UMI read abundance after kanamycin selection (control-corrected) (log10(CPM+1)); higher = more efficient recombination; extreme values may be limits of the assay; sequences stand for … in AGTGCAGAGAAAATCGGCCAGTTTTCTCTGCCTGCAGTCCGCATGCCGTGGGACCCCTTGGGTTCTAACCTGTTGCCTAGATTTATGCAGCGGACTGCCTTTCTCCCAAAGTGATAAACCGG…AGGTTGGTTTCACT; site = the 11-nt donor
Kindly supply the reported recombinant UMI read abundance (log10) values for the records listed here.
Quick one: just the number, no unit, thanks!

Using the record for AATCTACCATGGACCGGTTTTCCCGGTAATCCGTATTTGAG (site AATCTACCTCT) , report its recombinant UMI read abundance (log10).
0.0184

Lookup TGGAAGACATGGACCGGTTTTCCCGGTAATCCGTATTTGCA (site AGGAAGACTTG)
1.64

Lookup CCCAATACATGGACCGGTTTTCCCGGTAATCCGTATTTGGC (site CCCAATACTGC)
0

Lookup GGTCCAACATGGACCGGTTTTCCCGGTAATCCGTATTTGTC (site GGTCCAACTAA)
0.015

Lookup CCTAAACCATGGACCGGTTTTCCCGGTAATCCGTATTTGAT (site CCTAAACCTAT)
0

Lookup CCGACATCATGGACCGGTTTTCCCGGTAATCCGTATTTGCT (site CTGACATCTAG)
0

Lookup GGCCAGGCATGGACCGGTTTTCCCGGTAATCCGTATTTGTT (site GGCCAGGCTAA)
0.00326

Lookup TGTAGGTCATGGACCGGTTTTCCCGGTAATCCGTATTTGAA (site TGTAGGTCTTT)
0.238

Lookup GTGCAGGCATGGACCGGTTTTCCCGGTAATCCGTATTTGGT (site GTGCAAGCTAC)
1.77

Lookup GGAGTTGCATGGACCGGTTTTCCCGGTAATCCGTATTTGGT (site GGAGTAGCTAC)
0.089

Lookup AAACGTCCATGGACCGGTTTTCCCGGTAATCCGTATTTGTT (site AAACGTCCTAA)
0.525

Lookup AGCCTTACATGGACCGGTTTTCCCGGTAATCCGTATTTGAC (site AGCCTTTCTGT)
0

Lookup CCATCATCATGGACCGGTTTTCCCGGTAATCCGTATTTGCT (site CAATCATCTAG)
0

Lookup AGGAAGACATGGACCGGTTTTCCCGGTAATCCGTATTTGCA (site AGGATGTCTTG)
0

Lookup GTCCACCCATGGACCGGTTTTCCCGGTAATCCGTATTTGTT (site GTCCACCCTAA)
0.0175

Lookup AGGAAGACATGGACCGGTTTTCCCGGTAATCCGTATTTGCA (site AATAAGACTTG)
1.43

Lookup CGATCGGCATGGACCGGTTTTCCCGGTAATCCGTATTTGTT (site CGATCGTCTAA)
0.324

Lookup GCCAAACCATGGACCGGTTTTCCCGGTAATCCGTATTTGGT (site GTCAAACCTAC)
0

Lookup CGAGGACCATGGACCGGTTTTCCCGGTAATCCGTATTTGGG (site CGTGGACCTCC)
0.0136

Lookup AACTAGCCATGGACCGGTTTTCCCGGTAATCCGTATTTGCG (site AACTAGCCTCG)
0.00356

Lookup GGAAGTGCATGGACCGGTTTTCCCGGTAATCCGTATTTGAA (site GGAAGTGCTTT)
2.27

Lookup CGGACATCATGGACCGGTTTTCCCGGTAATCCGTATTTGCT (site CTGACATCTAG)
1.34

Lookup CACTTGTCATGGACCGGTTTTCCCGGTAATCCGTATTTGGA (site CACTTGGCTTC)
0.00318

Lookup GTGGTCGCATGGACCGGTTTTCCCGGTAATCCGTATTTGCG (site GTGGTCGCTCG)
1.15

Lookup GCAGGTGCATGGACCGGTTTTCCCGGTAATCCGTATTTGAT (site CCAGGTGCTAT)
1.91

* * *

Kindly supply the reported recombinant barcode read abundance (log10) values for the records listed here.
test_details: recombinant barcode read abundance after kanamycin selection (control-corrected) (log10(CPM+1)); higher = more efficient recombination; sequences stand for … in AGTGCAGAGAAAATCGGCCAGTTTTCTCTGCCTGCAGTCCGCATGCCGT…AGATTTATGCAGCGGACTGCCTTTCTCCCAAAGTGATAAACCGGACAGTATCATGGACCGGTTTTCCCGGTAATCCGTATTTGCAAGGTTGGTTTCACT; site = the 11-nt target
Quick one: just the number, no unit, thanks!

Using the record for GGCACTACTTGGGTTCTAACCTGTTGCCT (site GGCACTACTAG) , report its recombinant barcode read abundance (log10).
0.392

Lookup TGGATTCCTTGGGTTCTAACCTGTTGCCT (site TGGATTGCTAG)
0.392

Lookup GCGTACCCTTGGGTTCTAACCTGTTGCCT (site GAGTACCCTAG)
0.404

* * *

test_details: recombinant UMI read abundance after kanamycin selection (control-corrected) (log10(CPM+1)); higher = more efficient recombination; extreme values may be limits of the assay; sequences stand for … in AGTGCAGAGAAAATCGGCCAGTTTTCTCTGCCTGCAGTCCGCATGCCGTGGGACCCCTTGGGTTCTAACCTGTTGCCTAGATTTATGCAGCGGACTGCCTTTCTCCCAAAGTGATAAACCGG…AGGTTGGTTTCACT; site = the 11-nt donor
observed_property: recombinant UMI read abundance (log10)
Quick one: just the number, no unit, thanks!

Using the record for GCCATACCATGGACCGGTTTTCCCGGTAATCCGTATTTGTG (site GCCATACCTCA) , report its recombinant UMI read abundance (log10).
0.00697

Lookup AGAAAGACATGGACCGGTTTTCCCGGTAATCCGTATTTGTA (site AGAAAGACTTA)
2.51

Lookup GCTCATTCATGGACCGGTTTTCCCGGTAATCCGTATTTGAG (site GCTCATTCTCT)
1.39

Lookup TTGGTAACATGGACCGGTTTTCCCGGTAATCCGTATTTGAG (site TTGGTAACTCT)
0.734

* * *

Kindly supply the reported recombinant barcode read abundance (log10) values for the records listed here.
test_details: recombinant barcode read abundance after kanamycin selection (control-corrected) (log10(CPM+1)); higher = more efficient recombination; sequences stand for … in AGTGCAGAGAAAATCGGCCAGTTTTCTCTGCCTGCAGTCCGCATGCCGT…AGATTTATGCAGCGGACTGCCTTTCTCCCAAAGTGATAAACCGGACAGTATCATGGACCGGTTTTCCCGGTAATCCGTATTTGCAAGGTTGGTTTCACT; site = the 11-nt target
Quick one: just the number, no unit, thanks!

Using the record for TTCAAAACTTGGGTTCTAACCTGTTGCCT (site TTCAAATCTAG) , report its recombinant barcode read abundance (log10).
0.0229

Lookup GGCTCCTCTTGGGTTCTAACCTGTTGCAT (site GGATCCTCTAT)
0.0148

Lookup GAGAGATCTTGGGTTCTAACCTGTTGCCT (site GAGATATCTAG)
0.117

Lookup TCCGTCTCTTGGGTTCTAACCTGTTGCCG (site TCCGTCTCTCG)
1.13

Lookup CATTATTCTTGGGTTCTAACCTGTTGCCT (site CATGATTCTAG)
0.071

Lookup CTATGGACTTGGGTTCTAACCTGTTGCCT (site CTATGGACTAG)
0.872

Lookup GCGTACCCTTGGGTTCTAACCTGTTGCCT (site GCGTACCCTAG)
1.41

* * *

test_details: recombinant barcode read abundance after kanamycin selection (control-corrected) (log10(CPM+1)); higher = more efficient recombination; sequences stand for … in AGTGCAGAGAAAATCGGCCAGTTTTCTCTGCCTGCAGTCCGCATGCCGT…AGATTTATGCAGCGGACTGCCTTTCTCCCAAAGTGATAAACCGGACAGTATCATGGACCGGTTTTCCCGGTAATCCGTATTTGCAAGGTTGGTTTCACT; site = the 11-nt target
Respond with yes for recombinant barcode read abundance (log10) values of 0.6 and above, no for values below.

State whether the measured recombinant barcode read abundance (log10) reaches 0.6, counting equality as reaching it, for GAAAATCCTTGGGTTCTAACCTGTTGCCT (site GAAATTCCTAG)
no

Lookup AATTGCCCTTGGGTTCTAACCTGTTGCCT (site ACTTGCCCTAG)
no

Lookup AACCAGTCTTGGGTTCTAACCTGTTGCGA (site AACTAGTCTTA)
no

Lookup ATGACCTCTTGGGTTCTAACCTGTTGCCT (site ATGACCTCTAG)
yes

Lookup GTAACTCCTTGGGTTCTAACCTGTTGCCT (site GTAACTCCTAG)
no

Lookup TGTTGGTCTTGGGTTCTAACCTGTTGCTT (site TGTTGGTCTAA)
no

Lookup GTCCCTCCTTGGGTTCTAACCTGTTGCGT (site GTCCCTCCTAT)
yes

Lookup CGAGCAACTTGGGTTCTAACCTGTTGCTT (site CGTGTAACTAA)
no

Lookup ACGCAATCTTGGGTTCTAACCTGTTGCCT (site ACGCAATCTAG)
no

Lookup GTCGTCGCTTGGGTTCTAACCTGTTGCCT (site GTCGTCACTAG)
no

Lookup GTTCCTGCTTGGGTTCTAACCTGTTGCCT (site GTTCCTCCTAG)
no

Lookup TAGCGTACTTGGGTTCTAACCTGTTGCGG (site TAGCGTACTCC)
yes

Lookup GCTCATTCTTGGGTTCTAACCTGTTGCCT (site GCTCATTCTAG)
no

Lookup GTGGGCACTTGGGTTCTAACCTGTTGCCT (site AGAAAGGCTGC)
no

Lookup CTAAGGTCTTGGGTTCTAACCTGTTGCCT (site CTAAGGTCTAG)
yes

Lookup CTTCCTTCTTGGGTTCTAACCTGTTGCCT (site CTCCCTTCTAA)
no

Lookup GAGTTCCCTTGGGTTCTAACCTGTTGCGT (site GAGTTACCTAC)
no

Lookup TCGGACACTTGGGTTCTAACCTGTTGCCA (site TGGGACTCTTG)
no

Lookup CTGGATCCTTGGGTTCTAACCTGTTGCCT (site CTGGATCCTAG)
yes

Lookup CTAGTCACTTGGGTTCTAACCTGTTGCAC (site CTAGTCACTGT)
yes
